- Test protocol: Tmax in rat at 30 mg/kg, po
- Format: ADME, organism-based
- Parameters: dose 30 mg/kg, route oral
- Test context: in vivo
Measured metric: Tmax (h)

* Cc1cccc(-n2nc(C(C)(C)C)cc2/C(=N/O)C(=O)Nc2ccc(OCCN3CCOCC3)c3ccccc23)c1 | 1.5

---

- Test protocol: Cmax in rat at 30 mg/kg, po
- Format: ADME, organism-based
- Design: dose 30 mg/kg, route oral
- Test context: in vivo
Measured metric: Cmax (ng/mL)

- Cc1cccc(-n2nc(C(C)(C)C)cc2/C(=N/O)C(=O)Nc2ccc(OCCN3CCOCC3)c3ccccc23)c1: 4000
